- ASSAY_TARGET: Inadl_1, Q8NI35
- Sequence (Q8NI35 113-229): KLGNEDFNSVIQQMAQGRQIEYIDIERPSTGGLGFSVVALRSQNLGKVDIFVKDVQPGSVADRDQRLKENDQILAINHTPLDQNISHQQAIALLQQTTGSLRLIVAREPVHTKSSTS
- PROTOCOL_SUMMARY: holdup assay
- Design: key: below the threshold = too weak to quantify, mostly under pKd 3.1 to 4
- SETUP_CONDITIONS: plain residues with an end cap or a label only (N-terminal biotin on a linker: ahx)
Field: pKd. Provide a value for each of the binders that follow.
Give bare numbers.

- BINDER: "VNENQKEYFF [CNTNAP4, Q9C0A0]"
  ENDPOINT_VALUE: 3.72

Now turn to the next binder.
(Q) # input binder: YNSFLSVTTV [PDZRN3, Q9UPQ7] ; wanted: its pKd
(A) 3.82
